System: gephE
measurement.protocol: µSPOT peptide microarray binding assay with recombinant gephE
test.settings: µSPOT peptide microarray, GlyRβ full positional scan, recombinant gephE; intensity normalised to wild-type sequence DLRSNDFSIVGSLPR (=1)
reported.endpoint: gephE Binding Intensity [norm.] (norm.)
Number only, in norm.; omit the unit.

Here's what some known entries look like.
- DLRFNDFSIVGSLPR [GlyRβ_Full_Positional_Scan_067]: 0.92
- DSRSNDFSIVGSLPR [GlyRβ_Full_Positional_Scan_035]: 0.97
- DLRSQDFSIVGSLPR [GlyRβ_Full_Positional_Scan_100]: 0.96
- DLRSNDASIVGSLPR [GlyRβ_Full_Positional_Scan_121, GlyR β 414-428 variant F420A]: 0.48
- DDRSNDFSIVGSLPR [GlyRβ_Full_Positional_Scan_030]: 1.07

# ---- query sequence ----
Suppose we examine the sequence DQRSNDFSIVGSLPR [GlyRβ_Full_Positional_Scan_040] ; what gephE Binding Intensity [norm.] value has been reported?
0.96
